Source of measurements: paper PMC4281220

Reported TI (Therapeutic index) J774A.1 values for a set of compounds
# System: macrophage-like cell line (J774A.1)
# assay name: Cytotoxicity, MTS assay, J774A.1
# Type: cell-based
# test parameters: 24 h
Non-standard residues stand in square brackets, D forms with d. Residues, ends and D or L forms follow the SMILES beside them.
readout name: TI (Therapeutic index) J774A.1

compound="CC[C@@H](C)[C@@H](N)C(=O)N[C@H](CCCNC(=N)N)C(=O)N[C@@H](C(=O)N[C@H](CCCCN)C(=O)N[C@@H](C(=O)N[C@H](CCCNC(=N)N)C(=O)N[C@@H](C(=O)N[C@H](CCCCN)C(=O)O)[C@H](C)CC)[C@H](C)CC)[C@H](C)CC [IK8 “D isoform”] (H-[dI][dR][dI][dK][dI][dR][dI][dK]-OH)" readout_name="TI (Therapeutic index) J774A.1" endpoint_result=>51.2/>51.2
compound="CC[C@H](C)[C@H](NC(=O)[C@H](CCCNC(=N)N)NC(=O)[C@H](CCCNC(=N)N)NC(=O)[C@H](CC(C)C)NC(=O)[C@H](Cc1c[nH]c2ccccc12)NC(=O)[C@H](C)NC(=O)[C@H](CCCCN)NC(=O)[C@@H](NC(=O)[C@H](CCCNC(=N)N)NC(=O)[C@H](CCCNC(=N)N)NC(=O)[C@H](CC(C)C)NC(=O)[C@@H](N)Cc1c[nH]c2ccccc12)[C@@H](C)CC)C(=O)N[C@@H](CCCCN)C(=O)N[C@@H](C)C(=O)O [RRIKA]" readout_name="TI (Therapeutic index) J774A.1" endpoint_result=55.6
compound="NCCCC[C@H](NC(=O)[C@H](Cc1ccccc1)NC(=O)[C@H](Cc1ccccc1)NC(=O)[C@H](CCCCN)NC(=O)[C@H](Cc1ccccc1)NC(=O)[C@H](Cc1ccccc1)NC(=O)[C@H](CCCCN)NC(=O)[C@H](Cc1ccccc1)NC(=O)[C@H](Cc1ccccc1)NC(=O)[C@@H](N)CCCCN)C(N)=O [(KFF)3K] (H-KFFKFFKFFK-NH2)" readout_name="TI (Therapeutic index) J774A.1" endpoint_result=33/>33
compound="N=C(N)NCCC[C@H](NC(=O)[C@H](CCCNC(=N)N)NC(=O)[C@H](Cc1c[nH]c2ccccc12)NC(=O)[C@H](Cc1c[nH]c2ccccc12)NC(=O)[C@H](CCCNC(=N)N)NC(=O)[C@H](CCCNC(=N)N)NC(=O)[C@H](Cc1c[nH]c2ccccc12)NC(=O)[C@H](Cc1c[nH]c2ccccc12)NC(=O)[C@H](CCCNC(=N)N)NC(=O)[C@H](Cc1c[nH]c2ccccc12)NC(=O)[C@H](Cc1c[nH]c2ccccc12)NC(=O)[C@@H](N)CCCNC(=N)N)C(=O)O [WR-12] (H-RWWRWWRRWWRR-OH)" readout_name="TI (Therapeutic index) J774A.1" endpoint_result=85.3/85.3

###

Measured GM MIC S. pseudintermedius of individual entries
# Tested on: S. pseudintermedius strains
# Assay type: cell-based, Staphylococcus pseudintermedius
# test parameters: 24 h
Non-standard residues stand in square brackets, D forms with d. Residues, ends and D or L forms follow the SMILES beside them.
readout name: GM MIC S. pseudintermedius

molecule="N=C(N)NCCC[C@H](NC(=O)[C@H](CCCNC(=N)N)NC(=O)[C@H](Cc1c[nH]c2ccccc12)NC(=O)[C@H](Cc1c[nH]c2ccccc12)NC(=O)[C@H](CCCNC(=N)N)NC(=O)[C@H](CCCNC(=N)N)NC(=O)[C@H](Cc1c[nH]c2ccccc12)NC(=O)[C@H](Cc1c[nH]c2ccccc12)NC(=O)[C@H](CCCNC(=N)N)NC(=O)[C@H](Cc1c[nH]c2ccccc12)NC(=O)[C@H](Cc1c[nH]c2ccccc12)NC(=O)[C@@H](N)CCCNC(=N)N)C(=O)O [WR-12] (H-RWWRWWRRWWRR-OH)" system_tested="S. pseudintermedius strains" endpoint_result="1.5 µM"
molecule="NCCCC[C@H](NC(=O)[C@H](Cc1ccccc1)NC(=O)[C@H](Cc1ccccc1)NC(=O)[C@H](CCCCN)NC(=O)[C@H](Cc1ccccc1)NC(=O)[C@H](Cc1ccccc1)NC(=O)[C@H](CCCCN)NC(=O)[C@H](Cc1ccccc1)NC(=O)[C@H](Cc1ccccc1)NC(=O)[C@@H](N)CCCCN)C(N)=O [(KFF)3K] (H-KFFKFFKFFK-NH2)" system_tested="S. pseudintermedius strains" endpoint_result="7.75 µM"
molecule="CC[C@@H](C)[C@@H](N)C(=O)N[C@H](CCCNC(=N)N)C(=O)N[C@@H](C(=O)N[C@H](CCCCN)C(=O)N[C@@H](C(=O)N[C@H](CCCNC(=N)N)C(=O)N[C@@H](C(=O)N[C@H](CCCCN)C(=O)O)[C@H](C)CC)[C@H](C)CC)[C@H](C)CC [IK8 “D isoform”] (H-[dI][dR][dI][dK][dI][dR][dI][dK]-OH)" system_tested="S. pseudintermedius strains" endpoint_result="5 µM"
molecule=CC[C@H](C)[C@H](NC(=O)[C@H](CCCNC(=N)N)NC(=O)[C@H](CCCNC(=N)N)NC(=O)[C@H](CC(C)C)NC(=O)[C@H](Cc1c[nH]c2ccccc12)NC(=O)[C@H](C)NC(=O)[C@H](CCCCN)NC(=O)[C@@H](NC(=O)[C@H](CCCNC(=N)N)NC(=O)[C@H](CCCNC(=N)N)NC(=O)[C@H](CC(C)C)NC(=O)[C@@H](N)Cc1c[nH]c2ccccc12)[C@@H](C)CC)C(=O)N[C@@H](CCCCN)C(=O)N[C@@H](C)C(=O)O system_tested="S. pseudintermedius strains" endpoint_result="1.15 µM"

###

# System: methicillin resistant Staphylococcus pseudintermedius (MRSP) strains
Non-standard residues stand in square brackets, D forms with d. Residues, ends and D or L forms follow the SMILES beside them.
# MIC90 per entry
readout name: MIC90 (µM)

compound="CC[C@@H](C)[C@@H](N)C(=O)N[C@H](CCCNC(=N)N)C(=O)N[C@@H](C(=O)N[C@H](CCCCN)C(=O)N[C@@H](C(=O)N[C@H](CCCNC(=N)N)C(=O)N[C@@H](C(=O)N[C@H](CCCCN)C(=O)O)[C@H](C)CC)[C@H](C)CC)[C@H](C)CC [IK8 “D isoform”] (H-[dI][dR][dI][dK][dI][dR][dI][dK]-OH)" unit=µM endpoint_result=4
compound="N=C(N)NCCC[C@H](NC(=O)[C@H](CCCNC(=N)N)NC(=O)[C@H](Cc1c[nH]c2ccccc12)NC(=O)[C@H](Cc1c[nH]c2ccccc12)NC(=O)[C@H](CCCNC(=N)N)NC(=O)[C@H](CCCNC(=N)N)NC(=O)[C@H](Cc1c[nH]c2ccccc12)NC(=O)[C@H](Cc1c[nH]c2ccccc12)NC(=O)[C@H](CCCNC(=N)N)NC(=O)[C@H](Cc1c[nH]c2ccccc12)NC(=O)[C@H](Cc1c[nH]c2ccccc12)NC(=O)[C@@H](N)CCCNC(=N)N)C(=O)O [WR-12] (H-RWWRWWRRWWRR-OH)" unit=µM endpoint_result=2
compound=CC[C@H](C)[C@H](NC(=O)[C@H](CCCNC(=N)N)NC(=O)[C@H](CCCNC(=N)N)NC(=O)[C@H](CC(C)C)NC(=O)[C@H](Cc1c[nH]c2ccccc12)NC(=O)[C@H](C)NC(=O)[C@H](CCCCN)NC(=O)[C@@H](NC(=O)[C@H](CCCNC(=N)N)NC(=O)[C@H](CCCNC(=N)N)NC(=O)[C@H](CC(C)C)NC(=O)[C@@H](N)Cc1c[nH]c2ccccc12)[C@@H](C)CC)C(=O)N[C@@H](CCCCN)C(=O)N[C@@H](C)C(=O)O unit=µM endpoint_result=1
compound="NCCCC[C@H](NC(=O)[C@H](Cc1ccccc1)NC(=O)[C@H](Cc1ccccc1)NC(=O)[C@H](CCCCN)NC(=O)[C@H](Cc1ccccc1)NC(=O)[C@H](Cc1ccccc1)NC(=O)[C@H](CCCCN)NC(=O)[C@H](Cc1ccccc1)NC(=O)[C@H](Cc1ccccc1)NC(=O)[C@@H](N)CCCCN)C(N)=O [(KFF)3K] (H-KFFKFFKFFK-NH2)" unit=µM endpoint_result=8

###

# Tested on: methicillin resistant Staphylococcus pseudintermedius (MRSP) strains
Non-standard residues stand in square brackets, D forms with d. Residues, ends and D or L forms follow the SMILES beside them.
# MIC50 per record follows
readout name: MIC50 (µM)

molecule="N=C(N)NCCC[C@H](NC(=O)[C@H](CCCNC(=N)N)NC(=O)[C@H](Cc1c[nH]c2ccccc12)NC(=O)[C@H](Cc1c[nH]c2ccccc12)NC(=O)[C@H](CCCNC(=N)N)NC(=O)[C@H](CCCNC(=N)N)NC(=O)[C@H](Cc1c[nH]c2ccccc12)NC(=O)[C@H](Cc1c[nH]c2ccccc12)NC(=O)[C@H](CCCNC(=N)N)NC(=O)[C@H](Cc1c[nH]c2ccccc12)NC(=O)[C@H](Cc1c[nH]c2ccccc12)NC(=O)[C@@H](N)CCCNC(=N)N)C(=O)O [WR-12] (H-RWWRWWRRWWRR-OH)" endpoint_result=0.5
molecule=CC[C@H](C)[C@H](NC(=O)[C@H](CCCNC(=N)N)NC(=O)[C@H](CCCNC(=N)N)NC(=O)[C@H](CC(C)C)NC(=O)[C@H](Cc1c[nH]c2ccccc12)NC(=O)[C@H](C)NC(=O)[C@H](CCCCN)NC(=O)[C@@H](NC(=O)[C@H](CCCNC(=N)N)NC(=O)[C@H](CCCNC(=N)N)NC(=O)[C@H](CC(C)C)NC(=O)[C@@H](N)Cc1c[nH]c2ccccc12)[C@@H](C)CC)C(=O)N[C@@H](CCCCN)C(=O)N[C@@H](C)C(=O)O endpoint_result=1
molecule="NCCCC[C@H](NC(=O)[C@H](Cc1ccccc1)NC(=O)[C@H](Cc1ccccc1)NC(=O)[C@H](CCCCN)NC(=O)[C@H](Cc1ccccc1)NC(=O)[C@H](Cc1ccccc1)NC(=O)[C@H](CCCCN)NC(=O)[C@H](Cc1ccccc1)NC(=O)[C@H](Cc1ccccc1)NC(=O)[C@@H](N)CCCCN)C(N)=O [(KFF)3K] (H-KFFKFFKFFK-NH2)" endpoint_result=4
molecule="CC[C@@H](C)[C@@H](N)C(=O)N[C@H](CCCNC(=N)N)C(=O)N[C@@H](C(=O)N[C@H](CCCCN)C(=O)N[C@@H](C(=O)N[C@H](CCCNC(=N)N)C(=O)N[C@@H](C(=O)N[C@H](CCCCN)C(=O)O)[C@H](C)CC)[C@H](C)CC)[C@H](C)CC [IK8 “D isoform”] (H-[dI][dR][dI][dK][dI][dR][dI][dK]-OH)" endpoint_result=4
